# assayed target: Acetylcholinesterase (Electrophorus electricus, UniProt O42275)
# Sequence (O42275 whole entry): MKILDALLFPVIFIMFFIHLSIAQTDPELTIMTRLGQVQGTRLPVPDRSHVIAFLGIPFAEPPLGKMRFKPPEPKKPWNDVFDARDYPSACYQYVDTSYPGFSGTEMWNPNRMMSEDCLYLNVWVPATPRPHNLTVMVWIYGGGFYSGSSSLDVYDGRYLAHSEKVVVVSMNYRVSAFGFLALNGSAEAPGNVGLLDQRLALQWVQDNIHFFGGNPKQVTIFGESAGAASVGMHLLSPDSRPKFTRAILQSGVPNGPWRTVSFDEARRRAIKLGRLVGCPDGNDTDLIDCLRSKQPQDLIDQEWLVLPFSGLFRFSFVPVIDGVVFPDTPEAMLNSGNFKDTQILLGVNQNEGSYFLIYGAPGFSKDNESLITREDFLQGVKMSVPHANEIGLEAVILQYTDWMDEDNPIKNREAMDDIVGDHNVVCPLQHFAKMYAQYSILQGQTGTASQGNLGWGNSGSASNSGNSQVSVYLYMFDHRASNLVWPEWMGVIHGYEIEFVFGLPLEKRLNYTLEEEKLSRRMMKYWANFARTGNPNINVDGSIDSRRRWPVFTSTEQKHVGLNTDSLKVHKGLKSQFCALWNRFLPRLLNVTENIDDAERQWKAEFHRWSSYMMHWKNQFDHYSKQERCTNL
property name: pKi
Interpret pKi as the negative base-10 log of the concentration measured in mol/L.

Query the reported pKi for Acetylcholinesterase (Electrophorus electricus, UniProt O42275); item: `COc1cc2c(cc1OC)/C(=C/c1ccc(O)c(N3CCCCC3)c1)OC2=O`
10.09

----------
# assayed target: Amyloid-beta precursor protein (Homo sapiens) (UniProt P05067)
# Sequence (P05067 whole entry): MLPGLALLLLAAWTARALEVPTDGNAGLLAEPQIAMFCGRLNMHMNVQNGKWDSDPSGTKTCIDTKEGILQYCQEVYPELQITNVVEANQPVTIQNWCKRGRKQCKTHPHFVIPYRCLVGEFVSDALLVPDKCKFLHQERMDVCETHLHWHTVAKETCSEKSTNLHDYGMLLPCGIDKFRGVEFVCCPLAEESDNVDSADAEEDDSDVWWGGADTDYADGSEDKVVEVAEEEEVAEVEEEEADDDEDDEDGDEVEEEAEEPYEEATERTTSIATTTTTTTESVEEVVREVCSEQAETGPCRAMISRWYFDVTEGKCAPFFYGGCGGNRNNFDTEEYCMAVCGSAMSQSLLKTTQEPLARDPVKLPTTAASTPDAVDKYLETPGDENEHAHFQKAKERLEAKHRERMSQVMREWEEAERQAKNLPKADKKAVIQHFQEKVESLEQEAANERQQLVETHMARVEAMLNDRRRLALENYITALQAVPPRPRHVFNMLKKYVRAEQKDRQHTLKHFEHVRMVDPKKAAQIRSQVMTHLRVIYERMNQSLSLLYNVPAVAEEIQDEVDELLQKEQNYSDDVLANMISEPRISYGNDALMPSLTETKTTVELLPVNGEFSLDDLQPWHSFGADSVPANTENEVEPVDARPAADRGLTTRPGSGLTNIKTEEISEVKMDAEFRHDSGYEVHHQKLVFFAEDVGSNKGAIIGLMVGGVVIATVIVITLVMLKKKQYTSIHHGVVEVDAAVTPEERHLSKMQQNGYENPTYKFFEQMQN
# experiment notes: Disaggregation of self-induced amyloid beta (1 to 42) (unknown origin) preformed fibrils at 25 uM measured after 24 hrs by thioflavin-T fluorescence assay relative to control
property name: Activity (%)
Respond with the bare value in %.

Example compounds with recorded Activity:
> print(dat)
                              record.smiles                            assayed.target  reading
1  COc1cc2c(cc1OC)/C(=C/c1ccc(O)c(N3CCCCC3)c1)OC2=O  Amyloid-beta precursor protein (Homo sapiens) (UniProt P05067)     11.8
2  CCN(CC)c1cc(/C=C2\OC(=O)c3cc(OC)c(OC)cc32)ccc1O  Amyloid-beta precursor protein (Homo sapiens) (UniProt P05067)     19.9

Tell me the measured Activity of `COc1cc(/C=C/C(=O)CC(=O)/C=C/c2ccc(O)c(OC)c2)ccc1O` , please.
24.3

----------
# experiment notes: Antioxidant activity assessed as trolox equivalent of AAPH radical scavenging activity measured every min for 90 mins by ORAC-FL assay
# Assay type: functional
Parameter: log10(Activity). Scope: all listed entries.
Transform log10 | Measure Activity | Unit equiv

> print(dat)
                                   molecule  reading
1  COc1cc2c(cc1OC)/C(=C\c1ccc(O)c(N3CCCCC3)c1)OC2=O     0.29
2  COc1cc2c(cc1OC)C(Cc1ccc(N3CCOCC3)c(O)c1)OC2=O (centres undefined)     0.38
3  COc1cc2c(cc1OC)C(Cc1cccc(O)c1N1CCCCC1)OC2=O (centres undefined)     0.16
4  COc1cc2c(cc1OC)/C(=C\c1cccc(O)c1N1CCN(C)CC1)OC2=O     0.14

Tell me the measured log10(Activity) of `COc1cc2c(cc1OC)/C(=C/c1ccc(N3CCOCC3)c(O)c1)OC2=O` , please.
0.25

Tell me the measured log10(Activity) of COc1cc2c(cc1OC)C(Cc1cccc(O)c1N1CCOCC1)OC2=O (centres undefined) , please.
0.36

Tell me the measured log10(Activity) of CCCCC1OC(=O)c2ccccc21 (racemic) [RAC-3-N-BUTYLPHTHALIDE] , please.
-0.70

Tell me the measured log10(Activity) of `COc1cc2c(cc1OC)/C(=C/c1cccc(O)c1N1CCCCC1)OC2=O` , please.
0.32

Tell me the measured log10(Activity) of `CCN(CC)c1c(O)cccc1/C=C1/OC(=O)c2cc(OC)c(OC)cc21` , please.
0.40

----------
Parameter: inhibition at […], 10 µM. Scope: all listed entries.
# assayed target: butyrylcholinesterase (BuChE) (Rattus norvegicus, UniProt Q9JKC1)
# Sequence (Q9JKC1 whole entry): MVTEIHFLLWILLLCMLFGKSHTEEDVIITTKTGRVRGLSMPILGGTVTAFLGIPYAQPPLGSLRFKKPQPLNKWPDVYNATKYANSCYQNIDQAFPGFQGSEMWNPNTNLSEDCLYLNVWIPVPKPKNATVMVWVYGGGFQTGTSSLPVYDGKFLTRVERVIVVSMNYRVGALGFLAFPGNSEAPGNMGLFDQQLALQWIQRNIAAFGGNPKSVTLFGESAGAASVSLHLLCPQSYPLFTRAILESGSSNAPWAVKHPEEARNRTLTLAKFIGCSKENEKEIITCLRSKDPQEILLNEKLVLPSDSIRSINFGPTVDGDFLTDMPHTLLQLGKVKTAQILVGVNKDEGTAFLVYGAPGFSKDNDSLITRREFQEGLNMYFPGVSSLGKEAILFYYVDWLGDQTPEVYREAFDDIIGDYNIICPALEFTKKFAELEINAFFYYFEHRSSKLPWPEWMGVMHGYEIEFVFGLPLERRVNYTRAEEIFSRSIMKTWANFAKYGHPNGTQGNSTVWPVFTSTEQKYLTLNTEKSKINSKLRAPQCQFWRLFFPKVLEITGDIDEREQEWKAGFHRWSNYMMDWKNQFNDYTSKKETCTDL
# experiment notes: Inhibition of rat serum BuChE at 10 uM using butyrylthiocholine iodide as substrate incubated for 15 mins by Ellman's method relative to control
# Format: cell-free
# experimental conditions: probe butyrylthiocholine iodide

Example compounds with recorded inhibition at […], 10 µM:
> print(dat)
                                   compound             property.name  reading
1  COc1cc2c(cc1OC)/C(=C/c1ccc(N3CCCC3)c(O)c1)OC2=O  inhibition at […], 10 µM     9.4%
2  COc1cc2c(cc1OC)/C(=C/c1ccc(N3CCCCC3)c(O)c1)OC2=O  inhibition at […], 10 µM     < 5%
3  CCN(CC)c1ccc(CC2OC(=O)c3cc(OC)c(OC)cc32)cc1O (stereo not given)  inhibition at […], 10 µM     < 5%

Query the reported inhibition at […], 10 µM for butyrylcholinesterase (BuChE) (Rattus norvegicus, UniProt Q9JKC1); item: `COc1cc2c(cc1OC)/C(=C\c1ccc(N3CCOCC3)c(O)c1)OC2=O`
5.7%

Query the reported inhibition at […], 10 µM for butyrylcholinesterase (BuChE) (Rattus norvegicus, UniProt Q9JKC1); item: COc1cc2c(cc1OC)C(Cc1ccc(N3CCN(C)CC3)c(O)c1)OC2=O (stereo not given)
< 5%
